testName: Single-dose oral toxicokinetic study of prodrugs in rats
Format: in vivo, rat
testSettings: male, CD, rat, plasma, po, 25 mg/kg
endpoint: Cmax (µM)
Answers are plain numbers, in µM.

Q: Suppose we examine the compound COc1cnc(-n2cnc(C)n2)c2[nH]cc(C(=O)C(=O)N3CCN(C(=O)c4ccccc4)CC3)c12 ; what Cmax value has been reported?
Ans: 98

---

testName: IV and PO pharmacokinetic studies of prodrug salts (Iab, Ibb, Icb) in the dog, with historical parent data
Format: in vivo, beagle dogs
testSettings: LLQ = 5 nM
endpoint: prodrug detected in plasma after oral administration (µM)
One number for each entry, in µM.

Q: Suppose we examine the molecule O=C(C(=O)N1CCN(C(=O)c2ccccc2)CC1)c1cn(COP(=O)(O)O)c2c(-n3ccnn3)ncc(F)c12 [Ibb] ; what prodrug detected in plasma after oral administration value has been reported?
Ans: 0.034

---

testName: Single-dose toxicokinetic and tolerability study of prodrugs in dogs
Type: in vivo, dog
testSettings: male, dog, plasma, po, 46 mg/kg, dog 3101M, day 8, Icb 46 mg/kg BID dry-filled capsules
endpoint: Cmax (µM)
Numbers only, in µM.

Q: Suppose we examine the molecule COc1cnc(-n2cnc(C)n2)c2[nH]cc(C(=O)C(=O)N3CCN(C(=O)c4ccccc4)CC3)c12 ; what Cmax value has been reported?
Ans: 121

---

testName: IV and PO pharmacokinetic studies of prodrug salts (Iab, Ibb, Icb) in the monkey, with historical parent data
Type: in vivo, cynomolgus monkeys
testSettings: male, cynomolgus monkey, plasma, po, 4.9 mg/kg; read-out: Cmax
endpoint: Cmax (µM)
Answers are plain numbers, in µM.

Q: Suppose we examine the compound COc1cnc(-n2cnc(C)n2)c2[nH]cc(C(=O)C(=O)N3CCN(C(=O)c4ccccc4)CC3)c12 ; what Cmax value has been reported?
Ans: 9.5

---

testName: IV and PO pharmacokinetic studies of prodrug salts (Iab, Ibb, Icb) in the monkey, with historical parent data
Assay type: in vivo, cynomolgus monkeys
testSettings: cynomolgus monkey, plasma, iv, 1 mg/kg; read-out: T1/2 (converted)
endpoint: half-life (h)
Give bare numbers, in h.

Q: Suppose we examine the molecule O=C(C(=O)N1CCN(C(=O)c2ccccc2)CC1)c1c[nH]c2c(-n3ccnn3)ncc(F)c12 [IVb] ; what half-life value has been reported?
Ans: 19

---

Record form. Attribute: bioavailability. Fill in for each entry.
testName: IV and PO pharmacokinetic studies of prodrug salts (Iab, Ibb, Icb) in the rat, with historical parent data
Format: in vivo, Sprague-Dawley rats
testSettings: plasma, po, 5 mg/kg, read-out: Bioavailability
Give bare numbers, in %.

O=C(C(=O)N1CCN(C(=O)c2ccccc2)CC1)c1c[nH]c2c(-n3ccnn3)ncc(F)c12	60

Q: Suppose we examine the compound COc1cnc(-n2cnc(C)n2)c2[nH]cc(C(=O)C(=O)N3CCN(C(=O)c4ccccc4)CC3)c12 ; what bioavailability value has been reported?
Ans: 82

---

testName: IV and PO pharmacokinetic studies of prodrug salts (Iab, Ibb, Icb) in the monkey, with historical parent data
Assay type: in vivo, cynomolgus monkeys
testSettings: cynomolgus monkey, plasma; monkey, historical parent, PO 5 mg/kg; read-out: AUCtot (μM · hr), PO
endpoint: AUC (µM·h)
Numbers only, in µM·h.

Q: Suppose we examine the compound COc1ncc(OC)c2c(C(=O)C(=O)N3CCN(C(=O)c4ccccc4)CC3)c[nH]c12 ; what AUC value has been reported?
Ans: 27

---

testName: Single-dose oral toxicokinetic study of prodrugs in rats
Type: in vivo, rat
testSettings: male, Sprague Dawley, rat, plasma, po, 19 mg/kg; read-out: AUC from zero to last time point
endpoint: AUC (µM·h)
Answers are plain numbers, in µM·h.

Q: Suppose we examine the molecule O=C(C(=O)N1CCN(C(=O)c2ccccc2)CC1)c1cn(COP(=O)(O)O)c2c(-n3ccnn3)ncc(F)c12 [Ibb] ; what AUC value has been reported?
Ans: 0.03

---

Record form. Attribute: half-life. Fill in for each entry.
testName: IV and PO pharmacokinetic studies of prodrug salts (Iab, Ibb, Icb) in the rat, with historical parent data
Format: in vivo, Sprague-Dawley rats
testSettings: male, Sprague-Dawley, plasma, after IV prodrug, analyte = label, read-out: t1/2 (hr), IV (converted)
Answers are plain numbers, in h.

Use these answered entries as a reference point.
COc1cnc(OC)c2c1c(C(=O)C(=O)N1CCN(C(=O)c3ccccc3)CC1)cn2COP(=O)(O)O [Iab]	0.16
COc1ncc(OC)c2c(C(=O)C(=O)N3CCN(C(=O)c4ccccc4)CC3)c[nH]c12 [IVa]	4.4

Kindly consider the entry below.
Q: Suppose we examine the molecule O=C(C(=O)N1CCN(C(=O)c2ccccc2)CC1)c1cn(COP(=O)(O)O)c2c(-n3ccnn3)ncc(F)c12 [Ibb] ; what half-life value has been reported?
Ans: 0.18

---

testName: IV and PO pharmacokinetic studies of prodrug salts (Iab, Ibb, Icb) in the rat, with historical parent data
Type: in vivo, Sprague-Dawley rats
testSettings: plasma, po, 5 mg/kg, read-out: T1/2 (converted)
endpoint: half-life (h)
Numbers only, in h.

Q: Suppose we examine the compound O=C(C(=O)N1CCN(C(=O)c2ccccc2)CC1)c1c[nH]c2c(-n3ccnn3)ncc(F)c12 ; what half-life value has been reported?
Ans: 3.7

---

testName: MAP studies G and H: PO dosing of diester IIa and monoester II′a in rats
Format: in vivo, rat
testSettings: male, Sprague-Dawley, rat, plasma, po, 5 mg/kg, IVa following PO dosing of monoester II′a
endpoint: Cmax (nM)
Answers are plain numbers, in nM.

Q: Suppose we examine the molecule COc1ncc(OC)c2c(C(=O)C(=O)N3CCN(C(=O)c4ccccc4)CC3)c[nH]c12 ; what Cmax value has been reported?
Ans: 1590

---

testName: IV and PO pharmacokinetic studies of prodrug salts (Iab, Ibb, Icb) in the dog, with historical parent data
Assay type: in vivo, beagle dogs
testSettings: plasma, historical parent, IV 1 mg/kg, read-out: AUCtot (μM · hr), IV
endpoint: AUC (µM·h)
Answers are plain numbers, in µM·h.

Q: Suppose we examine the molecule COc1ncc(OC)c2c(C(=O)C(=O)N3CCN(C(=O)c4ccccc4)CC3)c[nH]c12 [IVa] ; what AUC value has been reported?
Ans: 17

---

testName: Single-dose oral toxicokinetic study of prodrugs in rats
Type: in vivo, rat
testSettings: male, Sprague Dawley, rat, plasma, po, 64 mg/kg
endpoint: Cmax
Give the value; after it, write the unit.

Your task in this section: give Cmax for each listed record.
1. O=C(C(=O)N1CCN(C(=O)c2ccccc2)CC1)c1cn(COP(=O)(O)O)c2c(-n3ccnn3)ncc(F)c12 [Ibb]
2. O=C(C(=O)N1CCN(C(=O)c2ccccc2)CC1)c1c[nH]c2c(-n3ccnn3)ncc(F)c12 [IVb]

Ans:
0.14 µM
135 µM

---

testName: IV and PO pharmacokinetic studies of prodrug salts (Iab, Ibb, Icb) in the dog, with historical parent data
Assay type: in vivo, beagle dogs
testSettings: male, beagle, plasma, oral, 7 mg/kg, read-out: Bioavailability
endpoint: bioavailability (%)
Numbers only, in %.

Q: Suppose we examine the compound O=C(C(=O)N1CCN(C(=O)c2ccccc2)CC1)c1c[nH]c2c(-n3ccnn3)ncc(F)c12 [IVb] ; what bioavailability value has been reported?
Ans: 310

---

Record form. Attribute: Tmax. Fill in for each entry.
testName: IV and oral rat PK (MAP) studies A, B, C of phosphate prodrugs and parent studies A1, B1, C1
Type: in vivo, Sprague-Dawley rats
testSettings: male, Sprague-Dawley, rat, plasma, po, 5 mg/kg, rats, historic, after PO dosing of parent 5 mpk
Experimental: The rats for oral dosing studies were fasted overnight. […] The dosing solutions of all three prodrugs for both IV and oral administration were prepared in 100% normal saline at 1 mg/mL (dosing solution concentrations were parent compound equivalent). Plasma samples were collected in EDTA vacutainers over 24 hrs, and analyzed by LC/MS/MS for both the prodrugs and parent molecules. Pharmacokinetic analysis was performed on Kinetica™. […]
Give the value; after it, write the unit.

COc1cnc(-n2cnc(C)n2)c2[nH]cc(C(=O)C(=O)N3CCN(C(=O)c4ccccc4)CC3)c12	4 h
O=C(C(=O)N1CCN(C(=O)c2ccccc2)CC1)c1c[nH]c2c(-n3ccnn3)ncc(F)c12	4.6 h

Kindly consider the entry below.
Q: Suppose we examine the compound COc1ncc(OC)c2c(C(=O)C(=O)N3CCN(C(=O)c4ccccc4)CC3)c[nH]c12 ; what Tmax value has been reported?
Ans: 2 h

---

testName: IV and PO pharmacokinetic studies of prodrug salts (Iab, Ibb, Icb) in the dog, with historical parent data
Format: in vivo, beagle dogs
testSettings: male, beagle, plasma, 6.6 mg/kg, after oral prodrug, analyte = label, ND = not detected, read-out: C-24 hr (μM), PO
endpoint: concentration at 24 hr (µM)
Answers are plain numbers, in µM.

Q: Suppose we examine the compound COc1ncc(OC)c2c(C(=O)C(=O)N3CCN(C(=O)c4ccccc4)CC3)c[nH]c12 [IVa] ; what concentration at 24 hr value has been reported?
Ans: 0.26
